Target: PI3K delta (Homo sapiens, UniProt O00329)
Construct: for the full-length p110-d subunit are generated and fused by overlapping PCR; p85(iSH2) fusion partner (same polypeptide; see partner chain) (N); Gly linker (N); His tag (C); Tn5 (Trichoplusia ni) or TiniPro insect cells
Sequence (O00329 with tags, fused parts or gaps limits assumed): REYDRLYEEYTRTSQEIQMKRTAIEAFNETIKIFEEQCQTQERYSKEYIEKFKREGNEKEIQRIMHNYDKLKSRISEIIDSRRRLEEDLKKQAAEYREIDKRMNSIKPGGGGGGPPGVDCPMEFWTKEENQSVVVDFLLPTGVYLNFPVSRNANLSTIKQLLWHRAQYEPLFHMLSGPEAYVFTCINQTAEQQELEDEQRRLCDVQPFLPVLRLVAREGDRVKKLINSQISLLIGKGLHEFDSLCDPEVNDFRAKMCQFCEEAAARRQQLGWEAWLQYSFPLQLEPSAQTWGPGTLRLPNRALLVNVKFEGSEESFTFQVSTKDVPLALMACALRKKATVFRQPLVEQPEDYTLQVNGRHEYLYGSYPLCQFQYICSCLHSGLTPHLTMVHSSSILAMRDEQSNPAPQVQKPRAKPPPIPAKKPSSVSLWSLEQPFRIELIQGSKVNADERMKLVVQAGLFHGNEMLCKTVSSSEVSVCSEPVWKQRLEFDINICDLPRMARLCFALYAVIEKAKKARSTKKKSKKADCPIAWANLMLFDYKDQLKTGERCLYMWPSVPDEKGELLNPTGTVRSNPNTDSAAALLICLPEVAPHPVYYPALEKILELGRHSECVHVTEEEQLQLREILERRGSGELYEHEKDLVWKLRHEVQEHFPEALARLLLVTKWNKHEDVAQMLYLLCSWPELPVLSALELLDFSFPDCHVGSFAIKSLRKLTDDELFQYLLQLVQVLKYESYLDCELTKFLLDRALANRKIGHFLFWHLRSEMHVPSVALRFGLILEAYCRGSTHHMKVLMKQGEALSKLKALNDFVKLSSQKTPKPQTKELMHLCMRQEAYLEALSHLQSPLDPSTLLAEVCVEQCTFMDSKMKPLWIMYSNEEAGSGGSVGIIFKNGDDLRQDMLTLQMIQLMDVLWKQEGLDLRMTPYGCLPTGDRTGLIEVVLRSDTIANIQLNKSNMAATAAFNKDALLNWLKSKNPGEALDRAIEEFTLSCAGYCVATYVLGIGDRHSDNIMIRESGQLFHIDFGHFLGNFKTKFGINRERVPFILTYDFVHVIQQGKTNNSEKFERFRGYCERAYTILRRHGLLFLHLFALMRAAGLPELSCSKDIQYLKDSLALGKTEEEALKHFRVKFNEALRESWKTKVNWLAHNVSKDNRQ
Experiment: PI3K delta enzymatic assay (Kinase-Glo luminescence)
Details: Enzymatic Data
measurementKind: IC50 (nM)

# smilesInput, systemTested, unitAnnotation, recordedMeasurement
records = [
    ("CCS(=O)(=O)c1ccc(-c2c(C)nc3ccc(-c4ccc(OCCOCCOCCOC)c(OC)c4)nn23)cc1", "PI3K delta (Homo sapiens, UniProt O00329)", "nM", 3400),
]

a. COCCOCCOCCOc1ccc(-c2ccc3nc(C)c(-c4ccc(S(C)(=O)=O)cc4)n3n2)cc1OC
b. COc1cc(-c2ccc3nc(C)c(-c4cnc(N)c(C(F)(F)F)c4)n3n2)ccc1OCCNC(=O)C(C)C
c. COc1cc(-c2ccc3nc(C)c(-c4cnc(N)c(C(F)(F)F)c4)n3n2)ccc1OCCN1CCNC1=O
d. COc1ccc(-c2ccc3nc(C)c(-c4ccnc(N(C)CCN(C)C)n4)n3n2)cc1OC
e. COc1ccc(-c2ccc3nc(C)c(-c4ccc(N)nc4)n3n2)cc1OC
Task item: // sort entries: IC50, high to low Answer by listing the labels in the order asked for.
Reply: a, e, b, c, d
(a: 1740 nM, e: 694 nM, b: 372 nM, c: 255 nM, d: 41 nM)

1. COc1cc(-c2ccc3nc(C)c(-c4cnc(N)c(C(F)(F)F)c4)n3n2)ccc1OCCNC(=O)c1ccc(OC)c(OC)c1OC
2. COc1cc(-c2ccc3nc(C)c(-c4cnc(N)c(C(F)(F)F)c4)n3n2)ccc1OCCCNC(=O)C(C)C
3. Cc1nc2ccc(-c3ccc(OCCCN4CCCC4=O)cc3)nn2c1-c1cnc(N)c(C(F)(F)F)c1
Task item: Arrange by IC50, high to low. # output: labels, in the requested order
Reply: 1, 3, 2
(1: 5370 nM, 3: 273 nM, 2: 164 nM)
